Assay Name: thallium flux activation in parental CHO cells, counter-screen for KCNQ1 potentiator project (AID 493006);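 as to activation: fluorescence ratio of max minus min over baseline after K+ and Tl+ depolarization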
Condition Set: parental CHO-K1 cells, FluxOR thallium flux, at 10 µM
Calls of active or inactive are those of the source.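 The calls were made as follows: active = duplicate-averaged activation above buffer control mean plus 5 SD of those controls; inactive = the rest.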
Outcomes you can answer with include only these: class 1 = active, class 0 = inactive

Below, 3 compounds whose answers are already recorded.
| Compound | Discrete Label |
| --- | --- |
| CC(=O)Nc1cc(NC(C)=O)cc(C(=O)OC(C)C(=O)Nc2ccc(S(=O)(=O)N3CCCC3)cc2)c1 (stereo not given) | class 1 |
| COc1ccc2nc(/N=C/c3c(C)[nH]n(-c4ccc(C)cc4)c3=O)sc2c1 | class 1 |
| Cc1nn2c(c1-c1ccccc1)NC1=C(C(=O)CCC1)C2c1ccccc1 (stereo not given) | class 0 |

Qu. State the result this test recorded for O=C(NCc1ccccc1)c1onc(CSc2ccc(F)cc2)c1C(=O)NCCCN1CCOCC1 .
Ans. class 0

Qu. Write down the call the test reported for this compound. Item: CCc1ccc(S(=O)(=O)Nc2cc3c(cc2N2CCCCC2)n(C)c(=O)c(=O)n3C)cc1
Ans. class 0

---

Assay Name: thallium flux activation in parental CHO cells, counter-screen for KCNQ1 potentiator project (AID 493006);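 as to activation: fluorescence ratio of max minus min over baseline after K+ and Tl+ depolarization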
Condition Set: parental CHO-K1 cells, FluxOR thallium flux, at 10 µM
Calls of active or inactive are those of the source.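 How the source made its calls: active means duplicate-averaged activation above buffer control mean plus 5 SD of those controls; inactive means the rest.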
Your answer must be one of the following: yes (1) for active, no (0) for inactive

Examples from the recorded data:
| Compound | Discrete Label |
| --- | --- |
| CO/N=C/CC(=O)Nc1ccc(F)cc1F | no (0) |
| Oc1c(N=NC(=S)Nc2ccccc2F)c2ccccc2n1Cc1ccccc1Cl | yes (1) |
| CC(=O)c1ccc(N2CCN(C(=O)c3ccc(NC(=O)C4CCCO4)cc3)CC2)cc1 (stereo unspecified) | no (0) |
| CSC(=S)N/N=C(\C)c1ccc(Br)cc1 | yes (1) |
| COC(=O)C1CCCN1C(=O)COc1ccc(Cl)cc1Br (stereo unspecified) | yes (1) |

Qu. For CCCS(=O)(=O)c1c(S(=O)(=O)CCC)c2ccc(C(N)=O)cn2c1C(=O)c1ccccc1 , what call appears in the results of this test?
Ans. no (0)

Qu. Please let me know the test result on file for O=C(NC(=S)N(CCCCO)C1CCCCC1)c1sc2ccccc2c1Cl .
Ans. yes (1)

---

Assay Name: calcium flux inhibitors in TRPC4/5HT1a cells, confirmation, counter-screen for TRPC4 inhibitor project, cell-based, second counter screen, HEK293 TRPC4/5HT1a, Fluo-4 (AID 434978);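 also: serotonin given first at submaximal then at maximal dose after compound preincubation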
Condition Set: Fluo-4 calcium flux, at 10 µM, serotonin added to trigger calcium flux; stronger effect = higher value
Calls of active or inactive are those of the source.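 The calls were made as follows: active = primary screen active whose calcium signal fell more than 3 SD beyond the full-serotonin control mean in both duplicate plates; inactive = the rest.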
Test Readout: inhibition

// solved cases for inhibition follow
| Compound | inhibition |
| --- | --- |
| COc1ccccc1C(=O)NNC(=S)NC(=O)c1cccs1 | inactive |
| CN(C)C(CNC(=O)C1CC(=O)N(Cc2ccccc2)C1)c1ccccc1 (stereo not given) | inactive |
| CN(C)c1ccc(NC(=S)N2CCN(c3ncc(C(F)(F)F)cc3Cl)CC2)cc1 | inactive |
| COc1ccc(N/C(C)=C2/C(=O)C(=O)N(CCO)C2c2ccc(Br)cc2)cc1 (stereo not given) | inactive |

Qu. Quick check: inhibition of O=C(NCCc1ccccn1)C(F)(F)C(F)(F)C(F)(F)C(F)(F)C(F)(F)C(F)F ?
Ans. inactive
